In this section, each of the molecules is paired with its reported log10 of IC50.
Tested Target: UniProtKB O14649
Protocol Notes: Inhibition of recombinant TASK-1 in stably transfected CHO cells, KCl-induced depolarization, voltage-sensitive dye (B-2)
Format: cell-based
Set-up: expressed in transfected cells; host or cells: stably transfected CHO cells
Assay Context: depolarization induced by 40 mM potassium chloride, some mean values from multiple determinations
Short version: log10 scale, IC50, nM.

Some entries whose results are on file:
CC(C)N(C)C(=O)N1C2CCC1CN(Cc1c(-c3ccc(Cl)cc3)nc3ccccn13)C2 [Example 178] | 2.46
CCN(CC)C(=O)N1C2COCC1CN(Cc1c(-c3ccc(Cl)cc3)nc3ccccn13)C2 [Example 188] | 1.78
O=C(C1CCCO1)N1C2CC1CN(Cc1c(-c3ccc(Cl)cc3)nc3ccccn13)C2 (racemic) [Example 115] | 3.63

With those in mind, consider the next molecule.
Bench note, UniProtKB O14649: Cc1cccc(C(=O)N2CC3CCC2CN3Cc2c(-c3ccc(Cl)cc3)nc3ccccn23)c1 (single isomer, unassigned) [Example 53] , log10 of IC50 reads 2.15

###

Tested Target: human TASK-1 (Homo sapiens, UniProt O14649)
Sequence (O14649 whole entry): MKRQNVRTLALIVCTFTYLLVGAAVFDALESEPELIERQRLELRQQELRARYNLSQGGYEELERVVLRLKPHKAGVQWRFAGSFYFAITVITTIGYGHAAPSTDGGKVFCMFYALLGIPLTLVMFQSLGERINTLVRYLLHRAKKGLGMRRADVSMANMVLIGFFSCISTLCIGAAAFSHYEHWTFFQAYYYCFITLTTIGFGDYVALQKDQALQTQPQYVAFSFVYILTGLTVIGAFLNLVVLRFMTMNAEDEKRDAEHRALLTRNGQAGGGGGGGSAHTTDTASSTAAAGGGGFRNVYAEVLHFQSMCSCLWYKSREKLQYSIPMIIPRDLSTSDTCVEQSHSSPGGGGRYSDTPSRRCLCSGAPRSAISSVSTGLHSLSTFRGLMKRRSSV
Protocol Notes: Inhibition of recombinant TASK-1 in stably transfected CHO cells, KCl-induced depolarization, voltage-sensitive dye (B-2)
Type: cell-based
Set-up: expressed in transfected cells; host or cells: stably transfected CHO cells
Assay Context: depolarization induced by 40 mM potassium chloride, some mean values from multiple determinations
Consider the cut-off 1000 nM. If the recorded IC50 is strictly smaller, the label is rule met; if not, the label is rule not met.

Recorded results for 7 molecules are shown here.
CCN(C(=O)N1C2CCC1CN(Cc1c(-c3ccc(Cl)cc3)nc3ccccn13)C2)C1CCCCC1 [Example 175] | rule met
COc1cccc(C(=O)N2C3CCC2CN(Cc2c(-c4ccc(Cl)cc4)nc4ccccn24)C3)c1 [Example 108] | rule not met
Cc1ccc(F)cc1C(=O)N1CC2CCC1CN2Cc1c(-c2ccc(Cl)cc2)nc2ccccn12 (single isomer, unassigned) [Example 47] | rule met
Cc1cnc(C(=O)N2C3CCC2CN(Cc2c(-c4ccc(Cl)cc4)nc4ccccn24)C3)s1 [Example 149] | rule not met
O=C(NC1CCCCC1)N1C2CCC1CN(Cc1c(-c3ccc(Cl)cc3)nc3ccccn13)C2 [Example 164] | rule not met
COc1cccc(C(=O)N2C[C@H]3CC[C@@H]2CN3Cc2c(-c3ccc(Cl)cc3)nc3ccccn23)n1 [Example 34] | rule met
O=C(c1ccccc1F)N1CC2CCC1CN2Cc1c(-c2ccc(Cl)cn2)nc2ccccn12 (centres unmarked) [Example 64] | rule met

Answer whether the molecule O=C(OC1CCCC1)N1C2COCC1CN(Cc1c(-c3ccc(Cl)cc3)nc3ccccn13)C2 [Example 196] has IC50 strictly less than 1000 nM
rule met

###

Tested Target: human TASK-3 (Homo sapiens, UniProt Q9NPC2)
Sequence (Q9NPC2 whole entry): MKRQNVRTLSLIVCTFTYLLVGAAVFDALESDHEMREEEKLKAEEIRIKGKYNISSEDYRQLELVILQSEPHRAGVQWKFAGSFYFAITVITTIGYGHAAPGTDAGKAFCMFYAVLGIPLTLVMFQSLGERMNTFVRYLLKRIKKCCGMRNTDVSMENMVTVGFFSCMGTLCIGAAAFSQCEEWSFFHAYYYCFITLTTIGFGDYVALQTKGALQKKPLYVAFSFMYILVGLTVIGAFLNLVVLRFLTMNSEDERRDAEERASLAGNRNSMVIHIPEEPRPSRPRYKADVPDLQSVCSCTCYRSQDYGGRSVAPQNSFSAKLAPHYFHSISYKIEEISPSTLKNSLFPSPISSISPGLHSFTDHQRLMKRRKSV
Protocol Notes: Inhibition of recombinant TASK-3 in stably transfected CHO cells, KCl-induced depolarization, voltage-sensitive dye (B-2)
Type: cell-based
Parameters: expressed in transfected cells; host or cells: stably transfected CHO cells
Assay Context: depolarization induced by 40 mM potassium chloride, some mean values from multiple determinations
pIC50: −log10 of the molar value.
Response field class: enum, chosen by comparing pIC50 against small value = under 7, mid value = from 7 up to 8, large value = 8 and over

Here's what some known entries look like.
O=C(OC1CCCC1)N1C2CCC1CN(Cc1c(-c3ccc(Cl)cc3)nc3ccccn13)C2 [Example 186] | mid value
O=C(c1cc(F)ccc1Cl)N1C2CC1CN(Cc1c(-c3ccc(Cl)cc3)nc3ccccn13)C2 [Example 119] | small value
COc1ccc(F)c(C(=O)N2C3CCC2CN(Cc2c(-c4ccc(Br)cc4)nc4ccccn24)C3)n1 [Example 140] | mid value
COc1cccc(C(=O)N2CC3CCC2CN3Cc2c(-c3ccc(Br)cc3)nc3ccccn23)n1 (racemic) [Example 151] | large value

Exercise: read the entry O=C(c1ccccc1F)N1CC2CCC1CN2Cc1c(-c2ccc(Cl)cc2)nc2ccccn12 (single isomer, unassigned) [Example 36] and state which class it falls under.
small value

Form field 'band' for O=C(Nc1cc(C(F)(F)F)ccc1Cl)N1C2CCC1CN(Cc1c(-c3ccc(Cl)cc3)nc3ccccn13)C2 [Example 160]
small value

###

# pIC50 values compiled below
Tested Target: human TASK-3 (Homo sapiens, UniProt Q9NPC2)
Protocol Notes: Two-electrode voltage clamp analysis of human TASK-3 channel in Xenopus laevis oocytes (B-1)
Format: cell-based
Parameters: expressed in transfected cells; host or cells: Xenopus laevis oocytes injected with cRNA
Assay Context: Xenopus laevis oocytes injected with TASK-3 cRNA, 21-22° C.
pIC50 here is simply -log10 of the concentration when that concentration is written in mol/L.

COc1cccc(C(=O)N2C[C@@H]3CC[C@H]2CN3Cc2c(-c3ccc(Cl)cc3)nc3ccccn23)n1 (single isomer, unassigned; enantiomer 1) [Example 21] | 7.79
COc1cccc(C(=O)N2C[C@H]3CC[C@@H]2CN3Cc2c(-c3ccc(Cl)cc3)nc3ccccn23)n1 [Example 34] | 7.99
COc1ccc(F)c(C(=O)N2CC3CCC2CN3Cc2c(-c3ccc(Cl)cn3)nc3ccccn23)n1 (single isomer, unassigned; enantiomer 1) [Example 24] | 7.51
COc1cccc(C(=O)N2C3CCC2CN(Cc2c(-c4ccc(Cl)cc4)nc4ccccn24)C3)n1 [Example 104] | 8.38
COc1ccc(F)c(C(=O)N2CC3CCC2CN3Cc2c(-c3ccc(C(C)C)nc3)nc3ccccn23)n1 (single isomer, unassigned) [Example 126] | 6.15

The reported pIC50 of the molecule COc1cccc(C(=O)N2CC3CCC(C2)N3Cc2c(-c3ccc(Cl)cc3)nc3ccccn23)n1 [Example 92] was 8.23

###

Reported values of IC50 for individual entries
Tested Target: human TASK-1 (Homo sapiens, UniProt O14649)
Protocol Notes: Inhibition of recombinant TASK-1 in stably transfected CHO cells, KCl-induced depolarization, voltage-sensitive dye (B-2)
Type: cell-based
Parameters: expressed in transfected cells; host or cells: stably transfected CHO cells
Assay Context: depolarization induced by 40 mM potassium chloride, some mean values from multiple determinations
Protocol: B-2. Inhibition of Recombinant TASK-1 and TASK-3 In Vitro The investigations on the inhibition of the recombinant TASK-1 and TASK-3 channels were conducted using stably transfected CHO cells. […] 6 (5), 305-312 (2001); Molecular Devices FLIPR Application Note: Measuring membrane potential using the FLIPR® membrane potential assay kit on Fluorometric Imaging Plate Reader (FLIPR®) systems, http://www.moleculardevices.com/reagents-supplies/assay-kits/ion-channels/flipr-membrane-potential-assay-kits]. […]
Give just the number in µM; leave the unit off.

COc1ccc(C)c(C(=O)N2CC3CCC(C2)N3Cc2c(-c3ccc(Cl)cc3)nc3ccccn23)n1 [Example 143] | 0.13
O=C(C1CCCC1)N1C2CCC1CN(Cc1c(-c3ccc(Cl)cn3)nc3ccccn13)C2 [Example 113] | 0.089
CCOC(=O)N1C2CCC1CN(Cc1c(-c3ccc(Cl)cc3)nc3ccccn13)C2 [Example 185] | 0.12

Now examine the next entry.
Short answer for O=C(c1ccccc1F)N1C2CCC1CN(Cc1c(-c3ccc(Cl)cn3)nc3ccccn13)C2 [Example 111] : IC50 was 0.11

###

Tested Target: human TASK-1 (Homo sapiens, UniProt O14649)
Protocol Notes: Inhibition of recombinant TASK-1 in stably transfected CHO cells, KCl-induced depolarization, voltage-sensitive dye (B-2)
Format: cell-based
Set-up: expressed in transfected cells; host or cells: stably transfected CHO cells
Assay Context: depolarization induced by 40 mM potassium chloride, some mean values from multiple determinations
Measured Property: pIC50
A value of pIC50 is the negative decimal logarithm of a concentration given in moles per litre.

Entry COc1ccc(Cl)c(C(=O)N2C3COCC2CN(Cc2c(-c4ccc(Cl)cn4)nc4ccccn24)C3)n1 [Example 136] ; pIC50 = 5.03

Cc1cccc(C)c1NC(=O)N1C2CCC1CN(Cc1c(-c3ccc(Cl)cc3)nc3ccccn13)C2 [Example 157] yielded pIC50 of 7.62

pIC50 reported for this compound Cc1ccccc1C(=O)N1CC2CCC1CN2Cc1c(-c2ccc(Cl)cc2)nc2ccccn12 (single isomer, unassigned) [Example 46] : 7.14

The recorded pIC50 for COc1ccc(Cl)c(C(=O)N2C[C@@H]3CC[C@H]2CN3Cc2c(-c3ccc(Cl)cc3)nc3ccccn23)n1 (single isomer, unassigned; enantiomer 1) [Example 22] is 6.77

response.value for COc1ccc(C)c(C(=O)N2C3CC2CN(Cc2c(-c4ccc(Cl)cc4)nc4ccccn24)C3)n1 [Example 142] (field: pIC50) = 6.62

Record summary for O=C(c1ccccc1F)N1CC2CCC1CN2Cc1c(-c2ccc(Br)cc2)nc2ccccn12 (racemic) [Example 152] : reported pIC50 = 5.54

Noted for COc1ccc(C)c(C(=O)N2C3COCC2CN(Cc2c(-c4ccc(Cl)cc4)nc4ccccn24)C3)n1 [Example 81] : its pIC50 reads 6.28

Cc1ccc(C)c(NC(=O)N2C3CCC2CN(Cc2c(-c4ccc(Cl)cc4)nc4ccccn24)C3)c1 [Example 163] yielded pIC50 of 5.85

So for COc1ccccc1C(=O)N1CC2CCC(C1)N2Cc1c(-c2ccc(Cl)cc2)nc2ccccn12 [Example 91] , the logged pIC50 turned out to be 5.87

Source: patent US20210024545A1
